The following variants are listed with their measured ddG of mutation (higher = less stable) values.
B1: Lysozyme C, P61626 (parent)
chain: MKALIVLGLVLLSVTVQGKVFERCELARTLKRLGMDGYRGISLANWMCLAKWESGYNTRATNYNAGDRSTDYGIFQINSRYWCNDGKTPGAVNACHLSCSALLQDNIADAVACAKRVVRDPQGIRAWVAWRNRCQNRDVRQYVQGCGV

Variants of: B1
Conditions: Homo sapiens; pH 2.7; 64.9 °C; Thermal; DSC; glycine 0.05 M; reversible: yes; structure 1LZ1; whole UniProt chain shown
MEASURED_ENDPOINT: ddG of mutation (higher = less stable) (kcal/mol)

SEQUENCE	MEASURED_ENDPOINT	TEST_RESULT
MKALIVLGLVLLSVTVQGKVFERCELARTLKRLGMDGYRGISLANWMCLAKWESGYNTRATNYNAGDRSTDYGIFQINSRYWCNDGKTPGAVNACHLSCSALLQDNVADAVACAKRVVRDPQGIRAWVAWRNRCQNRDVRQYVQGCGV [I107V]	ddG of mutation (higher = less stable)	0.48
MKALIVLGLVLLSVTVQGKVFERCELARTLKRLGMDGYRGISLANWMCLAKWESGYNTRATNYNAGDRSTDYGIFQINSRYWCNDGKTPGAVNACHLSCSALLQDNIADAVACAKRVVRDPQGVRAWVAWRNRCQNRDVRQYVQGCGV [I124V]	ddG of mutation (higher = less stable)	0.72
MKALIVLGLVLLSVTVQGKVFERCELARTLKRLGMDGYRGVSLANWMCLAKWESGYNTRATNYNAGDRSTDYGIFQINSRYWCNDGKTPGAVNACHLSCSALLQDNIADAVACAKRVVRDPQGIRAWVAWRNRCQNRDVRQYVQGCGV [I41V]	ddG of mutation (higher = less stable)	0.36
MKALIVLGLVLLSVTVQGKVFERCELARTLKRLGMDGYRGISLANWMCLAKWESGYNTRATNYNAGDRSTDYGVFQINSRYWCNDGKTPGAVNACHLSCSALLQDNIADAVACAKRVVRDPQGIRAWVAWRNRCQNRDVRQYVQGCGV [I74V]	ddG of mutation (higher = less stable)	1.2

From: FireProtDB (doi:10.1006/jmbi.1995.0599)
